System: RAW264.7
Test: Antiinflammatory activity in mouse RAW264.7 cells assessed as inhibition of LPS-induced NO production at 60 uM relative to control
Format: functional
reportedProperty: inhibition at 60 µM (%)
Answer format: numeric, % implied, no suffix.

GET /value?item= `CC12C(=O)O[C@@]3(C)C[C@@H](O)[C@H]1C[C@]23O[C@@H]1O[C@H](COC(=O)c2ccccc2)[C@@H](O)[C@H](O)[C@H]1O` &field=inhibition at 60 µM returns 34.8

GET /value?item= `CC(C)c1ccc(CO[C@@H]2O[C@H](CO[C@@H]3O[C@@H](C)[C@H](O)[C@@H](O)[C@H]3O)[C@@H](O)[C@H](O)[C@H]2O)cc1` &field=inhibition at 60 µM returns 38.7

GET /value?item= `C=C[C@@](C)(O)CC/C=C(\C)C(=O)OC[C@H]1O[C@@H](O[C@]23CC4C2(COC(=O)c2ccccc2)[C@H]2O[C@]4(O)C[C@]3(C)O2)[C@H](O)[C@@H](O)[C@@H]1O` &field=inhibition at 60 µM returns 38.1

GET /value?item= `CC(C)=CCC/C(C)=C/C(=O)O[C@@H]1O[C@H](CO[C@@H]2O[C@@H](C)[C@H](O)[C@@H](O)[C@H]2O)[C@@H](O)[C@H](O)[C@H]1O` &field=inhibition at 60 µM returns 33.4

GET /value?item= `C[C@]1(C(=O)OC[C@H]2O[C@@H](O[C@]34CC5C3(COC(=O)c3ccccc3)[C@H]3O[C@]5(O)C[C@]4(C)O3)[C@H](O)[C@@H](O)[C@@H]2O)[C@@H]2CC[C@H](CO)[C@H]1C2` &field=inhibition at 60 µM returns 29.3
